Test system: HCT-116
Assay: Antiproliferative activity against HCT116 (human colon carcinoma) cell line.
Format: functional, cell-based
# if measured IC50 < 900 nM: Fulfilled  # else: Not fulfilled

Ask: Check if IC50 falls below 900 nM for O=C1NC(=O)c2c1c1c3ccc(C(F)(F)F)cc3[nH]c1c1c2c2cccc3c2n1CC(CO)C3 (stereo unspecified) .
Reply: Not fulfilled

Ask: Is it true that IC50 reported for CN(C)CC1Cc2cccc3c(C4=C(c5c[nH]c6ccccc56)C(=O)NC4=O)cn(c23)C1 (stereo unspecified) is less than 900 nM?
Reply: Fulfilled

Ask: Please determine if Cn1ccc2ccc3c(c4c(c5c6cccc7c6n(c35)CC(CO)C7)C(=O)NC4=O)c21 (stereo unspecified) is below 900 nM in terms of IC50.
Reply: Fulfilled

Ask: # TODO verify IC50 < 900 nM strictly for this compound: O=C1NC(=O)c2c1c1c3ccccc3ccc1c1c2c2cccc3c2n1C(CO)CC3 (stereo unspecified)
Reply: Not fulfilled
